Please go through the items and note down their IC50.
Test Target: monoclonal antibody (mAb) to detect Aβ42-derived peptide species with free N-terminus (generated in Example 1)
Method Notes: competition ELISA: soluble peptide against plate-bound DAEFRH-C-BSA for the biotinylated mAb, FIG. 5

Exercise: Read off the recorded IC50 for EYEFRGC [Peptide 1239 EYEFRG]
Key: > 0.5 µg/mL

Exercise: Return the recorded IC50 value; entry: DKELRC [Peptide 1238 DKELR]
Key: < 0.5 µg/mL

Exercise: Report IC50 for DWEFRDAC [Peptide 1241 DWEFRDA]
Key: < 0.5 µg/mL

Exercise: Hello, please tell me recorded IC50 for this one: DRELRIC [Peptide 1235 DRELRI]
Key: < 0.5 µg/mL

Exercise: Please supply the value of reported IC50 for the item DKELKIC [Peptide 1236 DKELKI]
Key: > 5 µg/mL

Exercise: Please look at this binder and report its IC50: DRELKIC [Peptide 1237 DRELKI]
Key: > 5 µg/mL
